Tested on: Phosphorylated Ribosomal Protein S6 (RPS6) in THP-1 cells
Assay: THP-1 RPS6 ELISA Assay
Type: cell-based, Human
Conditions: Homo sapiens; THP-1 cells, serum starved, 2 hours compound, 10 nM MCP-1 for 15 minutes, Phospho-RPS6 ELISA; read-out: PI3Kγ_THP1_RPS6_ELISA IC50
Protocol: Example A. THP-1 RPS6 ELISA Assay To measure the Phosphorylated Ribosomal Protein S6 (RPS6) in cell lysates, THP-1 cells (Human Acute Monocytic Leukemia) are purchased from ATCC (Manassas, VA) and maintained in RPMI with 10% FBS (Gibco/Life Technologies, Carlsbad, CA). […] The plate is measured using a microplate reader (SpectraMax M5—Molecular Devices, LLC Sunnyvale, CA) set to 450 nm with a wavelength correction of 540. […]
pIC50: −log10 of the molar value.
Readings of pIC50 for the listed compounds

Past entries and their recorded results:
- COMPOUND: "Cc1ccc(C(O)(C(C)(C)O)C(F)(F)F)cc1-c1cnc(N)c(C(=O)NC2CCOCC2)n1 (stereo not drawn)"
  TARGET_DESC: "Phosphorylated Ribosomal Protein S6 (RPS6) in THP-1 cells"
  pIC50: "> 7.00"
- COMPOUND: "[2H]C([2H])([2H])c1ccc(C(O)(CO)C(F)(F)F)cc1-c1cnc(N)c(C(=O)N[C@H]2C[C@](O)(C(F)(F)F)C2)n1 (single isomer, unassigned)"
  TARGET_DESC: "Phosphorylated Ribosomal Protein S6 (RPS6) in THP-1 cells"
  pIC50: "> 7.00"
- COMPOUND: "[2H]C([2H])([2H])n1nccc1-c1nc(-c2cc(C(O)(CO)C(F)(F)F)ccc2C)cnc1N (single isomer, unassigned)"
  TARGET_DESC: "Phosphorylated Ribosomal Protein S6 (RPS6) in THP-1 cells"
  pIC50: "> 7.00"
- COMPOUND: "Cc1ccc(C(O)(CO)C(F)F)cc1-c1cnc(N)c(C(=O)NC2CCOCC2)n1 (single isomer, unassigned)"
  TARGET_DESC: "Phosphorylated Ribosomal Protein S6 (RPS6) in THP-1 cells"
  pIC50: "> 7.00"
- COMPOUND: "[2H]C([2H])([2H])c1ccc(C(O)(C(C)O)C(F)(F)F)cc1-c1cnc(N)c(C(=O)NC2CCOCC2)n1 (single isomer, unassigned)"
  TARGET_DESC: "Phosphorylated Ribosomal Protein S6 (RPS6) in THP-1 cells"
  pIC50: "> 6.30"

--- query ---
Query: Tell me pIC50 reported for [2H]C([2H])([2H])c1ccc(C(O)(CO)C(F)(F)F)cc1-c1cnc(N)c(-c2cnc(C)o2)n1 (single isomer, unassigned)
Result: > 7.00

These data points were gathered from patent US11926616B2.
